Biological target: Aurora kinase A (Mus musculus)
Sequence (P97477 whole entry): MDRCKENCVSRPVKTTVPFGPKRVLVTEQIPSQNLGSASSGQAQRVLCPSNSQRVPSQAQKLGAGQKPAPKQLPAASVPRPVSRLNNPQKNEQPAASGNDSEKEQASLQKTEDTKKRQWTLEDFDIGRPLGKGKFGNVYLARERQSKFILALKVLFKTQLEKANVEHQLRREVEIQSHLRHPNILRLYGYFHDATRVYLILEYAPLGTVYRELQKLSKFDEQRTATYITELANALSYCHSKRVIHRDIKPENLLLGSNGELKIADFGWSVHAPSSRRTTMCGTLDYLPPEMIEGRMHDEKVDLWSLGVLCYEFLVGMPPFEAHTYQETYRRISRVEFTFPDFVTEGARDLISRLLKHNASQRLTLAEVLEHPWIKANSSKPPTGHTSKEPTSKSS
Assay: Inhibition of recombinant mouse aurora kinase A expressed in insect Sf9 cells using biotin-GLRRASLG as substrate in presence of [gamma-33P]ATP
METRIC_NAME: IC50 (µM)
Numbers only here, please. The scale is µM.

q: Suppose we examine the molecule `Nc1ncc2c(n1)-c1ccc(Cl)cc1C(c1ccccc1F)=NC2` ; what IC50 value has been reported?
a: 1.7

q: Suppose we examine the molecule `COc1cc(Nc2ncc3c(n2)-c2ccc(Cl)cc2C(c2c(F)cccc2OC)=NC3)ccc1C(=O)O` ; what IC50 value has been reported?
a: 0.001

q: Suppose we examine the molecule `COc1cccc(F)c1C1=NCc2cnc(Nc3ccc(C(=O)O)cc3)nc2-c2ccc(Cl)cc21` ; what IC50 value has been reported?
a: 0.01

q: Suppose we examine the molecule `O=C(O)c1ccc(Nc2ncc3c(n2)-c2ccc(Cl)cc2C(c2c(F)cccc2F)=NC3)cc1` ; what IC50 value has been reported?
a: 0.031

q: Suppose we examine the molecule `O=C(O)c1ccc(Nc2ncc3c(n2)-c2ccc(Cl)cc2C(c2ccccc2F)=NC3)cc1` ; what IC50 value has been reported?
a: 0.033

* * *

experiment: Oral bioavailability in Sprague-Dawley rat at 10 mg/kg; format: ADME, organism-based; settings: Sprague-Dawley, in vivo
METRIC_NAME: bioavailability

q: Suppose we examine the compound `O=C(O)c1ccc(Nc2ncc3c(n2)-c2ccc(Cl)cc2C(c2c(F)cccc2F)=NC3)cc1` ; what bioavailability value has been reported?
a: 100%

* * *

For each record, write down the corresponding Cmax.
assay: Cmax in po dosed Sprague-Dawley rat; type: ADME, organism-based; set-up: route oral; details: in vivo
Numbers only here, please. The scale is µg/mL.

q: Suppose we examine the compound `COc1cccc(F)c1C1=NCc2cnc(Nc3ccc(C(=O)O)cc3)nc2-c2ccc(Cl)cc21` ; what Cmax value has been reported?
a: 46

q: Suppose we examine the compound `O=C(O)c1ccc(Nc2ncc3c(n2)-c2ccc(Cl)cc2C(c2c(F)cccc2F)=NC3)cc1` ; what Cmax value has been reported?
a: 5.2

q: Suppose we examine the compound `COc1cc(Nc2ncc3c(n2)-c2ccc(Cl)cc2C(c2c(F)cccc2OC)=NC3)ccc1C(=O)O` ; what Cmax value has been reported?
a: 48

* * *

experiment: Cmax in nude mouse brain at 30 mg/kg, po; assay type: ADME, organism-based; design: dose 30 mg/kg, route oral
METRIC_NAME: Cmax (ng/mL)
Numbers only here, please. The scale is ng/mL.

q: Suppose we examine the compound `COc1cc(Nc2ncc3c(n2)-c2ccc(Cl)cc2C(c2c(F)cccc2OC)=NC3)ccc1C(=O)[O-].[Na+]` ; what Cmax value has been reported?
a: 420

q: Suppose we examine the compound `O=C([O-])c1ccc(Nc2ncc3c(n2)-c2ccc(Cl)cc2C(c2c(F)cccc2F)=NC3)cc1.[Na+]` ; what Cmax value has been reported?
a: 2600

q: Suppose we examine the compound `COc1cccc(F)c1C1=NCc2cnc(Nc3ccc(C(=O)[O-])cc3)nc2-c2ccc(Cl)cc21.[Na+]` ; what Cmax value has been reported?
a: 930

* * *

For each record, write down the corresponding half-life.
assay: Terminal half life in Sprague-Dawley rat at 1 mg/kg, iv; format: ADME, organism-based; conditions: in vivo, read-out: beta t1/2 (converted)
Numbers only here, please. The scale is h.

q: Suppose we examine the compound O=C(O)c1ccc(Nc2ncc3c(n2)-c2ccc(Cl)cc2C(c2c(F)cccc2F)=NC3)cc1 [MLN-8054] ; what half-life value has been reported?
a: 4.2

q: Suppose we examine the compound COc1cc(Nc2ncc3c(n2)-c2ccc(Cl)cc2C(c2c(F)cccc2OC)=NC3)ccc1C(=O)O [ALISERTIB] ; what half-life value has been reported?
a: 7

* * *

molecular target: Aurora kinase A (Mus musculus, UniProt P97477); assay: Competitive inhibition of recombinant mouse aurora kinase A expressed in insect Sf9 cells in presence of ATP
METRIC_NAME: Ki (nM)
Numbers only here, please. The scale is nM.

q: Suppose we examine the molecule `O=C(O)c1ccc(Nc2ncc3c(n2)-c2ccc(Cl)cc2C(c2c(F)cccc2F)=NC3)cc1` ; what Ki value has been reported?
a: 7

q: Suppose we examine the molecule `COc1cc(Nc2ncc3c(n2)-c2ccc(Cl)cc2C(c2c(F)cccc2OC)=NC3)ccc1C(=O)O` ; what Ki value has been reported?
a: 0.3

* * *

test: Protein binding in plasma (unknown origin); type: ADME, cell-free; details: read-out: PPB
For each record, write down the corresponding fraction unbound.

q: Suppose we examine the compound `O=C(O)c1ccc(Nc2ncc3c(n2)-c2ccc(Cl)cc2C(c2c(F)cccc2F)=NC3)cc1` ; what fraction unbound value has been reported?
a: < 0.02

q: Suppose we examine the compound `COc1cc(Nc2ncc3c(n2)-c2ccc(Cl)cc2C(c2c(F)cccc2OC)=NC3)ccc1C(=O)O` ; what fraction unbound value has been reported?
a: < 0.03

* * *

For each record, write down the corresponding Vd.
assay: Volume of distribution at steady state in Sprague-Dawley rat at 1 mg/kg, iv; type: ADME, organism-based; conditions: in vivo, read-out: Vdss
Numbers only here, please. The scale is L/kg.

q: Suppose we examine the compound COc1cc(Nc2ncc3c(n2)-c2ccc(Cl)cc2C(c2c(F)cccc2OC)=NC3)ccc1C(=O)O [ALISERTIB] ; what Vd value has been reported?
a: 2.21

q: Suppose we examine the compound O=C(O)c1ccc(Nc2ncc3c(n2)-c2ccc(Cl)cc2C(c2c(F)cccc2F)=NC3)cc1 [MLN-8054] ; what Vd value has been reported?
a: 1.48

* * *

For each record, write down the corresponding IC50.
molecular target: Gamma-aminobutyric acid receptor subunit alpha-1 (Homo sapiens); assay: Binding affinity to GABAA alpha-1 benzodiazepine binding site (unknown origin)
Sequence (P14867 whole entry): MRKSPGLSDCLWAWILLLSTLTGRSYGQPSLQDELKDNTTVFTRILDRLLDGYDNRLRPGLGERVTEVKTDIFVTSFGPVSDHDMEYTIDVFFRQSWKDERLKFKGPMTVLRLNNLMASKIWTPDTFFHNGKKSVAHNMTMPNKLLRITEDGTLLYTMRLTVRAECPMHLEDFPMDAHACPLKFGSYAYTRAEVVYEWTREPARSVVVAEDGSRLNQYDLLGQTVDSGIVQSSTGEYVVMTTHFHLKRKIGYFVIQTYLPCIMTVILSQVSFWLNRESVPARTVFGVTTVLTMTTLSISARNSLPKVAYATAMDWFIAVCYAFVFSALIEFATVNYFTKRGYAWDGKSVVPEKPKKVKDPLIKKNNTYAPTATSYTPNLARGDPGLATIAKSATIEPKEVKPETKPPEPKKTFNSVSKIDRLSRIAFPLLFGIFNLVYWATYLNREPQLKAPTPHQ
State the value with its unit after it.

q: Suppose we examine the compound `COc1cccc(F)c1C1=NCc2cnc(Nc3ccc(C(=O)O)cc3)nc2-c2ccc(Cl)cc21` ; what IC50 value has been reported?
a: 150 nM

q: Suppose we examine the compound `COc1cc(Nc2ncc3c(n2)-c2ccc(Cl)cc2C(c2c(F)cccc2OC)=NC3)ccc1C(=O)O` ; what IC50 value has been reported?
a: 490 nM

q: Suppose we examine the compound `O=C(O)c1ccc(Nc2ncc3c(n2)-c2ccc(Cl)cc2C(c2c(F)cccc2F)=NC3)cc1` ; what IC50 value has been reported?
a: 330 nM

* * *

tested on: HCT-116; experiment: Cytotoxicity against human HCT116 cells assessed as inhibition of cell proliferation by BrdU incorporation assay; type: functional
For each record, write down the corresponding GI50.
Numbers only here, please. The scale is nM.

q: Suppose we examine the molecule `COc1cccc(F)c1C1=NCc2cnc(Nc3ccc(C(=O)O)cc3)nc2-c2ccc(Cl)cc21` ; what GI50 value has been reported?
a: 130

q: Suppose we examine the molecule `Nc1ncc2c(n1)-c1ccc(Cl)cc1C(c1ccccc1F)=NC2` ; what GI50 value has been reported?
a: 11000

q: Suppose we examine the molecule `COc1cc(Nc2ncc3c(n2)-c2ccc(Cl)cc2C(c2c(F)cccc2OC)=NC3)ccc1C(=O)O` ; what GI50 value has been reported?
a: 30

q: Suppose we examine the molecule `O=C(O)c1ccc(Nc2ncc3c(n2)-c2ccc(Cl)cc2C(c2ccccc2F)=NC3)cc1` ; what GI50 value has been reported?
a: 950

* * *

assay: AUC (0 to 8 hrs) in nude mouse brain at 30 mg/kg, po; assay type: ADME, organism-based; parameters: dose 30 mg/kg, time < 8 hr, route oral
For each record, write down the corresponding AUC(0-t) at 8 h.
Numbers only here, please. The scale is ng·h/mL.

q: Suppose we examine the compound `O=C([O-])c1ccc(Nc2ncc3c(n2)-c2ccc(Cl)cc2C(c2c(F)cccc2F)=NC3)cc1.[Na+]` ; what AUC(0-t) at 8 h value has been reported?
a: 12500

q: Suppose we examine the compound `COc1cccc(F)c1C1=NCc2cnc(Nc3ccc(C(=O)[O-])cc3)nc2-c2ccc(Cl)cc21.[Na+]` ; what AUC(0-t) at 8 h value has been reported?
a: 3500

q: Suppose we examine the compound `COc1cc(Nc2ncc3c(n2)-c2ccc(Cl)cc2C(c2c(F)cccc2OC)=NC3)ccc1C(=O)[O-].[Na+]` ; what AUC(0-t) at 8 h value has been reported?
a: 2000
